assay: Single dose PK profile in Colon-26 tumor bearing mice; format: in vivo; conditions: female, mouse, po, 100 mg/kg; tumor; 100 mpk p.o.; 2nd of two values in cell; read-out: Cmax
Measurement Label: Cmax (ng/mL)
Unit ng/mL implied. Number only.

**Query** Any idea what Cmax was measured for CNS(=O)(=O)Nc1cccc(Cc2c(CN(C)C)c3ccc(OC(=O)N(C)C)cc3oc2=O)c1F ?
**Result** 12600
